Data provenance is ChEMBL document CHEMBL3804784.

- TGT: Steryl-sulfatase (Homo sapiens)
- Sequence (P08842 whole entry): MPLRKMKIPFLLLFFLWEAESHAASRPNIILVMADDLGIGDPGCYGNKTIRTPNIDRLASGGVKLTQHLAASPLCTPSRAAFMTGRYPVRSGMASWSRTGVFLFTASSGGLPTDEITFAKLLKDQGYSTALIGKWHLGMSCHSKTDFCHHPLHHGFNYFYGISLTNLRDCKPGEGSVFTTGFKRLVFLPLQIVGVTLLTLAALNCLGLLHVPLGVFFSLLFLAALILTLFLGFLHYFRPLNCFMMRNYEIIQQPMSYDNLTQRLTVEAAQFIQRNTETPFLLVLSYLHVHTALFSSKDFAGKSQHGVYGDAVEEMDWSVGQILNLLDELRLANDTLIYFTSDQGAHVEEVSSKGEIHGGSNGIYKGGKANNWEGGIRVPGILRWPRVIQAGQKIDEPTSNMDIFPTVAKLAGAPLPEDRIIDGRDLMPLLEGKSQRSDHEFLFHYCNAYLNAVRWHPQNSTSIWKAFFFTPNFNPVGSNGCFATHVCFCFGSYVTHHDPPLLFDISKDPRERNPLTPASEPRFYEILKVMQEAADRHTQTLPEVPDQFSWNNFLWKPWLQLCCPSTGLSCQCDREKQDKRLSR
- ASSAY DETAILS: Inhibition of human placental estrone sulfatase expressed in HEK293 cells using [3H]E1S as substrate incubated for 2 hrs by liquid scintillation counting method
- Format: cell-based
I'd appreciate it if you could supply IC50 values for the items below.
# unit: nM | format: bare number

Task: Data request, read-out IC50, for C[C@]12CC[C@@H]3c4ccc(OS(N)(=O)=O)cc4CC[C@H]3[C@@H]1CCC2=O [EMATE]
Result: 0.9

Task: Data request, read-out IC50, for CCCCCCC(O)(CCCCc1ccc(OS(N)(=O)=O)cc1)Cc1ccc(C(C)(C)C)cc1 (configuration not stated)
Result: 0.4

====

- TGT: UniProt P08842
- Sequence (P08842 whole entry): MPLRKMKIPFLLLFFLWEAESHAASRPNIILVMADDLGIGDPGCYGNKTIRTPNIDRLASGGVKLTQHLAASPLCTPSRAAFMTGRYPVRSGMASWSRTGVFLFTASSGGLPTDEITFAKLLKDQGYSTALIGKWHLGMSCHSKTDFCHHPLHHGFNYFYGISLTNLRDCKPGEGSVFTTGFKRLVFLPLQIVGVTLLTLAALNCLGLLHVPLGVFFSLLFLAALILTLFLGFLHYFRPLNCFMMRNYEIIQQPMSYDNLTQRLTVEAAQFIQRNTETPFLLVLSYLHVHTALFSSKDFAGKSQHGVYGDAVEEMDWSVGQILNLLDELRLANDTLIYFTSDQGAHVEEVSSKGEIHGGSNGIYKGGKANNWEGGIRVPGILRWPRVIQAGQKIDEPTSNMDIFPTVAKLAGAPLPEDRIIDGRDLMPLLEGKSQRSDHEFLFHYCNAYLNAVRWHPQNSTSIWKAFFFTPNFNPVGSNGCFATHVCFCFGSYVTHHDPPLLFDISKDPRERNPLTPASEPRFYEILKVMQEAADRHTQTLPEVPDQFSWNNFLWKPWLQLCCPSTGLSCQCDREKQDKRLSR
- ASSAY DETAILS: Inhibition of placental microsomal estrone sulfatase (unknown origin) using [3H]-estrone sulphate as substrate incubated for 20 mins by scintillation counting method
I'd appreciate it if you could supply IC50 values for the items below.
# unit: µM | format: bare number

Task: Data request, read-out IC50, for `CC(=O)c1ccc(OS(N)(=O)=O)cc1`
Result: 3.4

Task: Data request, read-out IC50, for `CCCCC(=O)c1ccc(OS(N)(=O)=O)cc1`
Result: 3.4

Task: Data request, read-out IC50, for `NS(=O)(=O)Oc1ccc(C=O)cc1`
Result: 3.4
